Measured values drawn from patent US20240279233A1 for this set.

Biological target: human recombinant TAK1-TAB1 Kinase (TAK1 (1-303) and TAB1 (437-end)) (Homo sapiens (Human), UniProt O43318)
Sequence (O43318 other isoform, or with tags, fused parts or gaps): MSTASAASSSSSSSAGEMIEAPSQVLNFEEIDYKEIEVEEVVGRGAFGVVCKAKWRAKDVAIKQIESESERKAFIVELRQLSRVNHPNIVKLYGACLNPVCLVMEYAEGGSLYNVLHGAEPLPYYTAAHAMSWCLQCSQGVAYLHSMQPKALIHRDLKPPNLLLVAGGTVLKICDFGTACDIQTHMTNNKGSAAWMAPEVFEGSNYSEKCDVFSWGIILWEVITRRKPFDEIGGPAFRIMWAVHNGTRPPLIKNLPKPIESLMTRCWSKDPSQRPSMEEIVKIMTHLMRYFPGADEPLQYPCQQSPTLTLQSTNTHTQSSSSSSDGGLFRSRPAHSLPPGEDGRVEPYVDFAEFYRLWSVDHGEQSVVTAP
Assay: TAK1 biochemical ADP-Glo kinase assay
Details: 10 μM ATP, MBP substrate; read-out: TAK1 Mean IC50 (nM) @ 10 μM ATP
METRIC_NAME: IC50 (nM)

Example entries begin here.
stdin: GET /values?readout=IC50&item= COc1ncccc1-c1cccc2nc3n(c12)CCCCCNC(=O)c1cccc(c1)C(=O)N3 [Example 28]
stdout: 366

stdin: What do you get for CC1CCCCNC(=O)c2cccc(c2)C(=O)/N=C2\Nc3cccc(C(=O)N4CC[C@H](F)C4)c3N21 (single isomer, unassigned) [Example 89] ?
stdout: 6

stdin: Input C[C@H]1CCCCn2c(nc3cccc(C(=O)N(C)C)c32)NC(=O)c2cccc(c2)C(=O)N1 [Example 44]
stdout: 223

stdin: # iterate: O=C1NCCOCCn2c(nc3ccccc32)NC(=O)c2cccc1c2 [Example 5]
stdout: 11

stdin: Then this compound: C[C@H]1CCCCNC(=O)c2cccc(c2)C(=O)/N=C2\Nc3ccnc(N4CCN(C5CC5)C4=O)c3N21 [Example 122]
stdout: 9

I = Cc1nnc(-c2cccc3c2N2/C(=N/C(=O)c4cccc(c4)C(=O)NCCCC[C@@H]2C)N3)n1C [Example 96]
II = CC1CCCCNC(=O)c2cccc(c2)C(=O)/N=C2\Nc3cccc(C(=O)N4CCC4)c3N21 (stereo not shown) [Example 43]
stdin: Higher IC50 between I and II ? Kindly give the label for the entry you pick.
stdout: I

* * *

Molecular target: human recombinant TAK1-TAB1 Kinase (TAK1 (1-303) and TAB1 (437-end)) (Homo sapiens (Human), UniProt O43318)
Assay: TAK1 biochemical ADP-Glo kinase assay
Settings: 10 μM ATP, MBP substrate; read-out: TAK1 Mean IC50 (nM) @ 10 μM ATP
METRIC_NAME: IC50 (nM)

stdin: Which IC50 value is on record for CC1CCCCNC(=O)c2cccc(c2)C(=O)Nc2nc3cccc(C(=O)N4CCN(C(=O)OC(C)(C)C)CC4)c3n21 (stereo not drawn) [Example 9] ?
stdout: 1

stdin: Consider next the compound C[C@H]1CCCCNC(=O)c2cccc(c2)C(=O)/N=C2\Nc3cccc(C(=O)N4CCC5(CCO5)C4)c3N21 (single isomer, unassigned) [Example 121] in the same way.
stdout: 5

stdin: And then CN1CCN(C(=O)c2ccc3c(c2)nc2n3CCCCCNC(=O)c3cccc(c3)C(=O)N2)CC1 [Example 11] , what is it?
stdout: 1

stdin: Now consider CC1CCCCNC(=O)c2cccc(c2)C(=O)/N=C2\Nc3cccc(C4CCCNC4=O)c3N21 (single isomer, unassigned) [Example 61] and answer again.
stdout: 4

stdin: Would you mind doing C[C@H]1CCCCNC(=O)c2cccc(c2)C(=O)/N=C2\Nc3cncc(C(=O)N(C)C)c3N21 [Example 145] as well?
stdout: 10

stdin: What do you get for CC1CCCCNC(=O)c2cccc(c2)C(=O)/N=C2\Nc3cccc(-c4nccn4C)c3N21 (single isomer, unassigned) [Example 136] ?
stdout: 4

stdin: Follow-up item: CC1CCCCNC(=O)c2cccc(c2)C(=O)/N=C2\Nc3cccc(C(=O)N4CC[C@@H](F)C4)c3N21 (single isomer, unassigned) [Example 93]
stdout: 6

stdin: Then this compound: C[C@H]1CCCCNC(=O)c2cccc(c2)C(=O)Nc2nc3cccc(-c4ncnn4C)c3n21 [Example 86]
stdout: 4

stdin: Another compound to look at: O=C1NCCCCCCn2c(nc3ccccc32)NC(=O)c2cccc1c2 [Example 1]
stdout: 27

stdin: Please answer likewise for C[C@H]1CCCCNC(=O)c2cccc(c2)C(=O)NC2Nc3cccc(N4CCCC4=O)c3N21 (stereo partly drawn) [Example 113]
stdout: 5

I = CN1CCN(Cc2ccc3c(c2)N/C2=N\C(=O)c4ccc(F)c(c4)C(=O)NCCCCCN23)CC1 [Example 103]
II = CC1CCCCNC(=O)c2cccc(c2)C(=O)/N=C2\Nc3cccc(-c4ncn(C(F)F)n4)c3N21 (single isomer, unassigned) [Example 137]
stdin: Hi there, can you help? I need to know whether I or II has lower measured IC50. Write down the label of the entry you select.
stdout: I

A = CC1CCCCNC(=O)c2cccc(c2)C(=O)/N=C2\Nc3cccc(C4CCCNC4=O)c3N21 (single isomer, unassigned) [Example 58]
B = CC(C)(C)OC(=O)N1CCN(C(=O)c2ccc3c(c2)nc2n3CCCCCNC(=O)c3cccc(c3)C(=O)N2)CC1 [Example 13]
C = CC1CCCCNC(=O)c2cccc(c2)C(=O)/N=C2\Nc3cccc(C(=O)N(C)CC(F)F)c3N21 (single isomer, unassigned) [Example 72]
stdin: Please give the order of these compounds when sorted by IC50, largest value leading. // list labels; follow requested order
stdout: C, A, B
(C: 7 nM, A: 4 nM, B: 1 nM)

1 = CN1CCCN(C(=O)c2cccc3c2N2CCCCCNC(=O)c4cccc(c4)C(=O)/N=C/2N3)CC1 [Example 26]
2 = Cc1nnc(-c2cccc3c2N2/C(=N/C(=O)c4cccc(c4)C(=O)NCCCCC2C)N3)o1 (single isomer, unassigned) [Example 132]
3 = CC1CCCCNC(=O)c2cccc(c2)C(=O)/N=C2\Nc3cccc(C(=O)N4CCOC[C@H]4C)c3N21 (single isomer, unassigned) [Example 76]
stdin: Order by IC50, ascending. Arrange the labels as the request states and list them.
stdout: 1, 2, 3
(1: 5 nM, 2: 10 nM, 3: 18 nM)
